Exercise: for every item that follows, state its recorded melting point.

Data request: Suppose we examine the compound O=C(Nc1ccc(-c2ccccc2)cc1-c1nnn[nH]1)OCc1cc2cc(-c3ccc(F)cc3)ccc2o1 ; what melting point value has been reported?
Data returned: 192 to 230 °C

Data request: Suppose we examine the compound COc1cccc(NC(=O)OCc2cc3cc(-c4ccc(F)cc4)ccc3o2)c1C(=O)O ; what melting point value has been reported?
Data returned: 160.5 to 164.3 °C

Data request: Suppose we examine the compound O=C(Nc1c(Cl)cc(Cl)cc1C(=O)O)OCc1cc2cc(-c3ccc(F)cc3)ccc2o1 ; what melting point value has been reported?
Data returned: 177.7 to 178.5 °C

Data request: Suppose we examine the compound O=C(Nc1ccccc1-c1nnn[nH]1)OCc1cc2cc(-c3ccccc3)ccc2o1 ; what melting point value has been reported?
Data returned: 213 to 216.5 °C
